# system: Amine oxidase [flavin-containing] A (Rattus norvegicus, UniProt P21396)
# Sequence (P21396 whole entry): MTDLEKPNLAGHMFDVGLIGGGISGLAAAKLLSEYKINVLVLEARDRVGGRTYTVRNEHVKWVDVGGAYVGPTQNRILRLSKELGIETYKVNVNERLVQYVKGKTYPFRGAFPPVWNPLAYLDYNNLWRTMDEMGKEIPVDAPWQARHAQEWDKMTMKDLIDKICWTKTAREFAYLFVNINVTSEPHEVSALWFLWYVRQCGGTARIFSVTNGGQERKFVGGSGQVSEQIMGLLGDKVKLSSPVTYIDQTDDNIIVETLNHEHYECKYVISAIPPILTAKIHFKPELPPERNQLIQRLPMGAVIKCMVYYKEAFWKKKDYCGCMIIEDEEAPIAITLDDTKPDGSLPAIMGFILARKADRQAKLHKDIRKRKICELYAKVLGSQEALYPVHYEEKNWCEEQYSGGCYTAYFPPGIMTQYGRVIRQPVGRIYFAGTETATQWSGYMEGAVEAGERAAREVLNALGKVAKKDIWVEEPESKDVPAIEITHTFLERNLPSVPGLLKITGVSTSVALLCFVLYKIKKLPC
# experiment_summary: In vitro inhibitory concentration against Monoamine oxidase A of rat brain homogenates 47-101
# Assay type: tissue-based

compound | system | scale_unit | IC50
C#CCNC1CCc2ccc(OC(=O)NCCC)cc21 (stereo unspecified) | Amine oxidase [flavin-containing] A (Rattus norvegicus, UniProt P21396) | µM | 69

----------
# system: Amine oxidase [flavin-containing] A (Rattus norvegicus)
# experiment_summary: In vitro inhibitory concentration against Monoamine oxidase A of rat brain homogenates; value ranges from 0.5-3.7
# Type: tissue-based
pIC50: −log10 of the molar value.

compound_structure | system | pIC50
C#CCN(C)CCc1cccc(O)c1 | Amine oxidase [flavin-containing] A (Rattus norvegicus) | 5.89
